Items are presented alongside their recorded S. aureus Proliferation EC50.
test system: S. aureus; test: S. aureus bacterial proliferation assay; format: cell-based; settings: Table 2; cation adjusted BHI media, OD600 at 6-8 h

response.value for Cc1cc(C(C#N)c2ccc(Cl)cc2)c(Cl)cc1NC(=O)c1ccc(Cl)cc1 (centres unmarked) [Compound 78] (field: S. aureus Proliferation EC50) = > 100 µM

response.value for Cc1cc(C(C#N)c2ccc(Cl)cc2)c(Cl)cc1NC(=O)c1ccccc1 (centres unmarked) [Compound 82] (field: S. aureus Proliferation EC50) = > 100 µM

response.value for Cc1cc(C(C#N)c2ccc(Cl)cc2)c(Cl)cc1NC(=O)c1cccc(F)c1 (centres unmarked) [Compound 80] (field: S. aureus Proliferation EC50) = > 100 µM

response.value for Cc1cc(C(C#N)c2ccc(Cl)cc2)c(Cl)cc1NC(=O)c1ccc(O)cc1 (centres unmarked) [Compound 66] (field: S. aureus Proliferation EC50) = 4.9 µM

response.value for Cc1cc(C(C#N)c2ccc(Cl)cc2)c(Cl)cc1NC(=O)c1ccccc1N (centres unmarked) [Compound 70] (field: S. aureus Proliferation EC50) = > 100 µM

response.value for COc1cc(Cl)ccc1C(=O)Nc1cc(Cl)c(C(C#N)c2ccc(Cl)cc2)cc1C (centres unmarked) [Compound 55] (field: S. aureus Proliferation EC50) = > 100 µM

response.value for COc1ccc(Br)cc1C(=O)Nc1cc(Cl)c(C(C#N)c2ccc(Cl)cc2)cc1C (centres unmarked) [Compound 49] (field: S. aureus Proliferation EC50) = > 100 µM

response.value for Cc1cc(C(C#N)c2ccc(Cl)cc2)c(Cl)cc1NC(=O)c1ccccc1Cl (centres unmarked) [Compound 76] (field: S. aureus Proliferation EC50) = > 100 µM

response.value for COc1ccccc1C(=O)Nc1cc(Cl)c(C(C#N)c2ccc(Cl)cc2)cc1C (centres unmarked) [Compound 61] (field: S. aureus Proliferation EC50) = > 100 µM

response.value for COc1c(Cl)cc(Cl)cc1C(=O)Nc1cc(Cl)c(C(C#N)c2ccc(Cl)cc2)cc1C (centres unmarked) [Compound 51] (field: S. aureus Proliferation EC50) = > 100 µM

response.value for Cc1cc(C(C#N)c2ccc(Cl)cc2)c(Cl)cc1NC(=O)c1ccc(Br)cc1 (centres unmarked) [Compound 75] (field: S. aureus Proliferation EC50) = > 100 µM

response.value for Cc1cc(C(C#N)c2ccc(Cl)cc2)c(Cl)cc1NC(=O)c1cccc(Cl)c1 (centres unmarked) [Compound 77] (field: S. aureus Proliferation EC50) = > 100 µM

response.value for COc1ccc(C)cc1C(=O)Nc1cc(Cl)c(C(C#N)c2ccc(Cl)cc2)cc1C (centres unmarked) [Compound 59] (field: S. aureus Proliferation EC50) = > 100 µM

---

assay: HEK 293 kidney cell viability / cytotoxicity assay (Alamar Blue); format: cell-based; conditions: human, HEK 293 kidney cells; Table 2; 48 h incubation, Alamar Blue; read-out: HEK 293 Kidney Cell Viability CC50
property: CC50 at 48 h

response.value for COc1ccc(C(=O)Nc2cc(Cl)c(C(C#N)c3ccc(Cl)cc3)cc2C)cc1 (centres unmarked) (field: CC50 at 48 h) = > 100 µM

response.value for Cc1cc(C(C#N)c2ccc(Cl)cc2)c(Cl)cc1NC(=O)c1cccc(F)c1 (centres unmarked) (field: CC50 at 48 h) = 70 µM

---

target: HSP60/10 (Homo sapiens, UniProt P10809); construct: octa-Histidine (His8) tag, TEV-cleavable (N, cleaved yes); made in house; host or cells: HSP60 in Rosetta 2 (DE3) E. coli; HSP10 in Rosetta 2 (DE3) pLysS; assay: HSP60/10-mediated dMDH refolding assay; format: biochemical; details: Table 2; 37° C., 1 mM ATP; read-out: Biochemical Assay IC50 HSP60/10-dMDH Refolding
Sequence (P10809 27-573): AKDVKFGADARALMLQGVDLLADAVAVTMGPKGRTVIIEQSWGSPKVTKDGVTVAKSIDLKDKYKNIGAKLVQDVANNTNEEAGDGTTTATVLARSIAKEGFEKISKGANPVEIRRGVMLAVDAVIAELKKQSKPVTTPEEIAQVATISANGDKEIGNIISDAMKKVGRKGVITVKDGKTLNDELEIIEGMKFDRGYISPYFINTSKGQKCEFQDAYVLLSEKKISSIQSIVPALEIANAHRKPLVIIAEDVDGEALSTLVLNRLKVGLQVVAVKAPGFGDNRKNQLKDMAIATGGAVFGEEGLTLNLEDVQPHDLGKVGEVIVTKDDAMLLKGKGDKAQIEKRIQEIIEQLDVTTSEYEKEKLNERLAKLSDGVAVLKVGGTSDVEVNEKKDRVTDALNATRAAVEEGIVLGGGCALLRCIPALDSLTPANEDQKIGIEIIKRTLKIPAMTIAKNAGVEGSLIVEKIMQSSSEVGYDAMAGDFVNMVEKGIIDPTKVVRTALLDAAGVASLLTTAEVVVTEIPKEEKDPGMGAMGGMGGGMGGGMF
Items are presented alongside their recorded IC50.
Provide only the numeric value, understood in µM.

Take a look at these entries with their results.
{"columns": ["compound", "IC50 / µM"],
 "data": [
  ["COc1c(Cl)cc(Cl)cc1C(=O)Nc1cc(Cl)c(C(C#N)c2ccc(Cl)cc2)cc1C (centres unmarked)", 86],
  ["Cc1cc(C(C#N)c2ccc(Cl)cc2)c(Cl)cc1NC(=O)c1cccc(O)c1 (centres unmarked)", 33],
  ["Cc1cc(C(C#N)c2ccc(Cl)cc2)c(Cl)cc1NC(=O)c1cc(Cl)ccc1O (centres unmarked)", 40],
  ["Cc1cc(C(C#N)c2ccc(Cl)cc2)c(Cl)cc1NC(=O)c1cccc(Cl)c1O (centres unmarked)", 6.4],
  ["Cc1ccc(O)c(C(=O)Nc2cc(Cl)c(C(C#N)c3ccc(Cl)cc3)cc2C)c1 (centres unmarked)", 85]
]}

Field: next compound
response.value for Cc1cc(C(C#N)c2ccc(Cl)cc2)c(Cl)cc1NC(=O)c1ccc(O)cc1 (centres unmarked) (field: IC50) = 35

---

assay: HEK 293 kidney cell viability / cytotoxicity assay (Alamar Blue); type: cell-based; conditions: human, HEK 293 kidney cells; Table 1; 48 h incubation, Alamar Blue; read-out: HEK 293 Kidney Cell Viability CC50
property: CC50 at 48 h (µM)
Provide only the numeric value, understood in µM.

Take a look at these entries with their results.
{"columns": ["compound", "property", "assay result"],
 "data": [
  ["O=C(Nc1ccc([N+](=O)[O-])cc1Cl)c1cc(Cl)ccc1O [Niclosamide, reference compound]", "CC50 at 48 h", 1.7],
  ["O=C(Nc1ccc(Sc2nc3ccccc3s2)c(Cl)c1)c1cc(Br)cc(Br)c1O [Compound 1, reference compound]", "CC50 at 48 h", 73],
  ["CC(=O)Oc1ccccc1C(=O)Nc1ncc([N+](=O)[O-])s1 [Nitazoxanide, reference compound]", "CC50 at 48 h", 30],
  ["O=C(Nc1ncc([N+](=O)[O-])s1)c1ccccc1O [Tizoxanide, reference compound]", "CC50 at 48 h", 31]
]}

response.value for O=C(Nc1cc(Cl)cc(Cl)c1O)c1c(O)c(Cl)cc(Cl)c1Cl [Oxyclosanide, reference compound] (field: CC50 at 48 h) = 30

---

molecular target: native MDH (Sus scrofa); construct: soluble pig heart MDH from Roche, product #10127248001; purchased Roche 10127248001; host or cells: pig heart; test: Native MDH enzymatic activity counter-screen; assay type: biochemical, pig; conditions: Table 2; compounds added after refolding and EDTA quench; read-out: Biochemical Assay IC50 Native MDH Activity
Sequence (P00346 25-338): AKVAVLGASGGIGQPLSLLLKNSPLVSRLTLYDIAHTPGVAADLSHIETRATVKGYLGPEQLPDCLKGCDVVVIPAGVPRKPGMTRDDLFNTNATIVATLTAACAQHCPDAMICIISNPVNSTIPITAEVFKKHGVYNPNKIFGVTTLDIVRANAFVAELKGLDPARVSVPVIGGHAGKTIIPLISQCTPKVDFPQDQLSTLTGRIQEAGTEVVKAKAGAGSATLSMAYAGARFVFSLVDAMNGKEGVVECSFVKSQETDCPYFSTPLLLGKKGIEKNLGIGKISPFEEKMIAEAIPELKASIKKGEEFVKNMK
property: IC50

// assay native MDH (Sus scrofa), entry Cc1cc(C(C#N)c2ccc(Cl)cc2)c(Cl)cc1NC(=O)c1ccccc1Cl (centres unmarked) , IC50 value = > 63 µM

// assay native MDH (Sus scrofa), entry COc1ccc(C)cc1C(=O)Nc1cc(Cl)c(C(C#N)c2ccc(Cl)cc2)cc1C (centres unmarked) , IC50 value = > 63 µM

// assay native MDH (Sus scrofa), entry COc1cc(Cl)ccc1C(=O)Nc1cc(Cl)c(C(C#N)c2ccc(Cl)cc2)cc1C (centres unmarked) , IC50 value = > 63 µM

// assay native MDH (Sus scrofa), entry Cc1cc(C(C#N)c2ccc(Cl)cc2)c(Cl)cc1NC(=O)c1ccc(N)cc1 (centres unmarked) , IC50 value = > 63 µM

// assay native MDH (Sus scrofa), entry COc1c(Br)cccc1C(=O)Nc1cc(Cl)c(C(C#N)c2ccc(Cl)cc2)cc1C (centres unmarked) , IC50 value = > 63 µM

// assay native MDH (Sus scrofa), entry Cc1cc(C(C#N)c2ccc(Cl)cc2)c(Cl)cc1NC(=O)c1cccc(Br)c1O (centres unmarked) , IC50 value = 48 µM

// assay native MDH (Sus scrofa), entry COc1ccc(Br)cc1C(=O)Nc1cc(Cl)c(C(C#N)c2ccc(Cl)cc2)cc1C (centres unmarked) , IC50 value = > 63 µM

// assay native MDH (Sus scrofa), entry COc1ccccc1C(=O)Nc1cc(Cl)c(C(C#N)c2ccc(Cl)cc2)cc1C (centres unmarked) , IC50 value = > 63 µM

---

biological target: HSP60/10 (Homo sapiens, UniProt P10809); construct: octa-Histidine (His8) tag, TEV-cleavable (N, cleaved yes); made in house; host or cells: HSP60 in Rosetta 2 (DE3) E. coli; HSP10 in Rosetta 2 (DE3) pLysS; assay: HSP60/10-mediated dMDH refolding assay; format: biochemical; details: Table 1; 37° C., 1 mM ATP; read-out: Biochemical Assay IC50 HSP60/10-dMDH Refolding
property: pIC50
// pIC50: -log10(molar conc.)

{"columns": ["molecule", "pIC50"],
 "data": [
  ["O=C(Nc1ccc(Sc2nc3ccccc3s2)c(Cl)c1)c1cc(Br)cc(Br)c1O [Compound 1, reference compound]", 5.43]
]}

response.value for O=C(Nc1cc(Cl)cc(Cl)c1O)c1c(O)c(Cl)cc(Cl)c1Cl [Oxyclosanide, reference compound] (field: pIC50) = 4.55

response.value for Cc1cc(C(C#N)c2ccc(Cl)cc2)c(Cl)cc1NC(=O)c1cc(I)cc(I)c1O (stereo not drawn) [Closantel, reference compound] (field: pIC50) = 5.52

src = patent US20230406831A1
